Entry source: paper PMC4324837

Recorded CC50 at 19 h for the following molecules
assay: CC50 / cell viability by NucGreen staining, MRC5 cells; assay type: cell-based, Human; conditions: human, MRC5 cells

molecule: COc1cc([C@@H]2c3cc4c(cc3[C@H](O)[C@H]3COC(=O)[C@H]23)OCO4)cc(OC)c1OC [Podofilox]
value-units: nM
relation-symbol: >
CC50 at 19 h: 5000
//
molecule: CN(C)C(=S)SSC(=S)N(C)C [Thiram]
value-units: nM
relation-symbol: =
CC50 at 19 h: 2200

---

test: Cell viability by NucGreen staining, ARPE-19 cells; assay type: cell-based; conditions: human
experimental-endpoint: viability at 19 h, 10 nM

smiles-record: C[C@@H]1O[C@@H](O[C@H]2CC[C@]3(C=O)[C@H]4CC[C@]5(C)[C@@H](C6=CC(=O)OC6)CC[C@]5(O)[C@@H]4CC[C@]3(O)C2)[C@H](O)[C@H](O)[C@H]1O
reported-result: ~80%

---

test system: CMV AD169IE2-YFP; assay: in vitro; type: cell-based, Human cytomegalovirus; conditions: MRC5 cells, AD169IE2-YFP
Counter-ions that a name gives are not always drawn.

compound: CC[C@]1(O)C[C@H]2CN(CCc3c([nH]c4ccccc34)[C@@](C(=O)OC)(c3cc4c(cc3OC)N(C=O)[C@H]3[C@@](O)(C(=O)OC)[C@H](OC(C)=O)[C@]5(CC)C=CCN6CC[C@]43[C@@H]65)C2)C1 [Vincristine sulfate]
relation-symbol: =
Selective Ratio (CC50/EC50): 3.4

compound: CC(=O)O[C@@H]1C[C@@]2(C)[C@H](c3ccoc3)C[C@H]3O[C@]32[C@]2(C)C(=O)C(O)=C3C(C)(C)C(=O)C=C[C@]3(C)[C@@H]12
relation-symbol: =
Selective Ratio (CC50/EC50): 0.4

compound: CN(C)C(=S)SSC(=S)N(C)C
relation-symbol: <
Selective Ratio (CC50/EC50): 0.4

compound: COc1cc(C2c3cc4c(cc3C(O)C3COC(=O)C23)OCO4)cc(OC)c1O (stereo not shown) [4′-demethyl-epipodophyllotoxin]
relation-symbol: >
Selective Ratio (CC50/EC50): 1.5
